The origin of these recorded values is patent US11524958B2.

- test-target: CRTH2 receptor (Homo sapiens)
- Construct: host or cells: CHO-K1 (PathHunter β-arrestin line)
- Sequence (Q9Y5Y4 1-395): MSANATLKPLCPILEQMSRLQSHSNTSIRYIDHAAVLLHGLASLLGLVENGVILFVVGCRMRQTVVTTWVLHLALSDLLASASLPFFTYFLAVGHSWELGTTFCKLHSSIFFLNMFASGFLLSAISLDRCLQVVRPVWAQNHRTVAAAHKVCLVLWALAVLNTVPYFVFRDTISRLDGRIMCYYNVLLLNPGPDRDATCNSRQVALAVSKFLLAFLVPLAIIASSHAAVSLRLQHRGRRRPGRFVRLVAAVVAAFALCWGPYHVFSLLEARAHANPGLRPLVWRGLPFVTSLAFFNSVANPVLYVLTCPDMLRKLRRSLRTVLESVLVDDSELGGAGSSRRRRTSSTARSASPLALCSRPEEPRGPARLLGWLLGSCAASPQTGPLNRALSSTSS
- measurement-description: PathHunter CHO-K1 CRTH2 β-arrestin assay (DiscoverX), antagonism of PGD2
- Format: cell-based
- protocol-conditions: PathHunter CHO-K1 CRTH2 β-arrestin cells; compound 30 min, then EC80 agonist (PGD2) 90 min, 37° C.; chemiluminescent signal
pIC50: −log10 of the molar value.
Catalogue of compounds with associated pIC50

Consider the reported pIC50 for these compounds:
O=C(O)C1CCc2c(Cc3cccc4c3CCS4(=O)=O)c3cc(F)ccc3n2C1 (stereo not shown) | < 6.00
CS(=O)(=O)c1ccc(Cc2c3n(c4ccc(Cl)cc24)CC(C(=O)O)CC3)c(C(F)(F)F)c1 (single isomer, unassigned) [Example 22 peak2] | < 6.00
CS(=O)(=O)c1ccc(Cc2c3n(c4ccc(F)cc24)CC(C(=O)O)CC3)c(C(F)(F)F)c1 (single isomer, unassigned) [Example 25 peak2] | > 7.00
O=C(O)C1CCc2c(Cc3cccnc3S(=O)(=O)c3ccc(Cl)cc3)c3ccccc3n2C1 (stereo not shown) | 6.00 to 7.00
CC1(C(=O)O)CCc2c(Cc3ccc(C(F)(F)F)nc3)c3ccccc3n2C1 (stereo not shown) | < 6.00

**Q:** Specify pIC50 for CS(=O)(=O)c1ccc(Cc2c3n(c4ccc(F)cc24)CC(C(=O)O)CC3)c(C(F)(F)F)c1 (stereo not shown) [Example 25] and stop.
**A:** > 7.00

**Q:** Specify pIC50 for CS(=O)(=O)c1ccc(Cc2c3n(c4ncccc24)CC(C(=O)O)CC3)c(C(F)(F)F)c1 (stereo not shown) and stop.
**A:** < 6.00

---

Catalogue of compounds with associated IC50
- test-target: CRTH2 receptor (Homo sapiens)
- Sequence (Q9Y5Y4 1-395): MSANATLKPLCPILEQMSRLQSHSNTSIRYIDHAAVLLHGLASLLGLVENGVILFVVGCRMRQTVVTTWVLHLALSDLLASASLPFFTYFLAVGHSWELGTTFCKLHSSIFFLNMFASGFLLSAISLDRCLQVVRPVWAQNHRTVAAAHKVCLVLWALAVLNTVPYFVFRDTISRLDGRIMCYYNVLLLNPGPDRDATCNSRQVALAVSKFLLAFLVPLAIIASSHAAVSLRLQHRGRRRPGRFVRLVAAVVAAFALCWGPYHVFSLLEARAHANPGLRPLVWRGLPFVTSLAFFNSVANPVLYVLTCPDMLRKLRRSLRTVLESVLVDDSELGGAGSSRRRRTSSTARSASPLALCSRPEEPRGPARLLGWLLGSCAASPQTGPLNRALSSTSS
- measurement-description: PathHunter CHO-K1 CRTH2 β-arrestin assay (DiscoverX), antagonism of PGD2
- protocol-conditions: PathHunter CHO-K1 CRTH2 β-arrestin cells; compound 30 min, then EC80 agonist (PGD2) 90 min, 37° C.; chemiluminescent signal

O=C(O)C1CCc2c(Cc3ccc4c(c3)CCS4(=O)=O)c3cc(F)ccc3n2C1 (centres unmarked) [Example 28] | > 1000 nM
COc1cc(C(F)(F)F)c(Cc2c3n(c4ccccc24)CC(C(=O)O)CC3)cn1 (centres unmarked) [Example 40] | > 1000 nM
CS(=O)(=O)c1ccc(Cc2c3n(c4ccc(F)cc24)CC(C(=O)O)CC3)c(C(F)(F)F)c1 (single isomer, unassigned) [Example 25 peak1] | 100 to 1000 nM
CS(=O)(=O)c1ccc(Cc2c3n(c4ccccc24)CC(C(=O)O)C3)c(C(F)(F)F)c1 (centres unmarked) [Example 32] | 100 to 1000 nM

**Q:** Provide the reported IC50 (system: CRTH2 receptor (Homo sapiens)) for O=C(O)CC1CCc2c(Cc3ccc4ccccc4n3)c3ccccc3n2C1 (centres unmarked) [Example 10]
**A:** > 1000 nM

**Q:** Provide the reported IC50 (system: CRTH2 receptor (Homo sapiens)) for CS(=O)(=O)c1ccc(Cc2c3n(c4ccccc24)CC(CC(=O)O)CC3)cc1 (centres unmarked) [Example 9]
**A:** > 1000 nM

**Q:** Provide the reported IC50 (system: CRTH2 receptor (Homo sapiens)) for O=C(O)C1CCc2c(Cc3ccc4c(c3)C(F)C(F)(F)S4(=O)=O)c3cc(F)ccc3n2C1 (centres unmarked) [Example 33]
**A:** > 1000 nM

**Q:** Provide the reported IC50 (system: CRTH2 receptor (Homo sapiens)) for O=C(O)C1CCc2c(Cc3ccc4c(c3)S(=O)(=O)CC4)c3cc(F)ccc3n2C1 (centres unmarked) [Example 44]
**A:** > 1000 nM

**Q:** Provide the reported IC50 (system: CRTH2 receptor (Homo sapiens)) for O=C(O)C1CCCc2c(Cc3cccnc3S(=O)(=O)c3ccccc3)c3ccccc3n21 (centres unmarked) [Example 2]
**A:** 100 to 1000 nM

**Q:** Provide the reported IC50 (system: CRTH2 receptor (Homo sapiens)) for CS(=O)(=O)c1ccc(Cc2c3n(c4ccccc24)C(C(=O)O)CCC3)cc1 (centres unmarked) [Example 1]
**A:** > 1000 nM

**Q:** Provide the reported IC50 (system: CRTH2 receptor (Homo sapiens)) for CS(=O)(=O)c1ccc(Cc2c3n(c4ccccc24)CC(C(=O)O)CC3)nc1 (centres unmarked) [Example 39]
**A:** > 1000 nM

**Q:** Provide the reported IC50 (system: CRTH2 receptor (Homo sapiens)) for O=C(O)C1CCc2c(Cc3ccc4c(c3)CCS4(=O)=O)c3cc(Cl)ccc3n2C1 (centres unmarked) [Example 24]
**A:** > 1000 nM

**Q:** Provide the reported IC50 (system: CRTH2 receptor (Homo sapiens)) for O=C(O)C1CCc2c(Cc3cc4c(cc3C(F)(F)F)S(=O)(=O)CC4)c3cc(Cl)ccc3n2C1 (centres unmarked) [Example 37]
**A:** > 1000 nM

**Q:** Provide the reported IC50 (system: CRTH2 receptor (Homo sapiens)) for CS(=O)(=O)c1ccc(Cc2c3n(c4ccc(F)cc24)CC(C(=O)O)CC3)c(F)c1 (centres unmarked) [Example 26]
**A:** 100 to 1000 nM

**Q:** Provide the reported IC50 (system: CRTH2 receptor (Homo sapiens)) for CS(=O)(=O)c1ccc(Cc2c3ccccc3n3cc(C(=O)O)ncc23)c(C(F)(F)F)c1 [Example 31]
**A:** > 1000 nM

**Q:** Provide the reported IC50 (system: CRTH2 receptor (Homo sapiens)) for CS(=O)(=O)c1ccc(Cc2c3n(c4ccccc24)C(CC(=O)O)CCC3)cc1 (centres unmarked) [Example 7]
**A:** > 1000 nM

**Q:** Provide the reported IC50 (system: CRTH2 receptor (Homo sapiens)) for O=C(O)CC1CCc2c(Cc3cccnc3S(=O)(=O)c3ccccc3)c3ccccc3n2C1 (centres unmarked) [Example 11]
**A:** > 1000 nM

**Q:** Provide the reported IC50 (system: CRTH2 receptor (Homo sapiens)) for CS(=O)(=O)c1ccc(Cc2c3n(c4ccccc24)CC(C(=O)O)CC3)c(C(F)(F)F)c1 (centres unmarked) [Example 16]
**A:** < 100 nM

**Q:** Provide the reported IC50 (system: CRTH2 receptor (Homo sapiens)) for CS(=O)(=O)c1ccc(Cc2c3ccccc3n3cc(C(=O)O)ncc23)cc1 [Example 29]
**A:** > 1000 nM

**Q:** Provide the reported IC50 (system: CRTH2 receptor (Homo sapiens)) for O=C(O)C1CCc2c(Cc3ccc4ccccc4n3)c3cc(F)ccc3n2C1 (centres unmarked) [Example 27]
**A:** > 1000 nM
